Below, each of the compounds is paired with its reported IC50 value.
target: human MGL from HeLa cells (Homo sapiens); construct: combining endogenously expressed MGL from HeLa cells with test compounds; endogenous in cells; host or cells: HeLa cells / cell homogenates; experiment: In vitro MGL activity assay: [glycerol-1,3-3H]-oleyl glycerol cleavage by MGL from HeLa cells; type: biochemical; settings: 300 nM [Glycerol-1,3-3H]-oleyl glycerol, one hour incubation
Lab book: enter the figure in nM, no units written.

Prompt: Fill in the blank: the reported IC50 of CC1c2nn(-c3ccccc3)c(-c3ccccc3)c2CCN1C(=O)c1ccc2ncccc2c1 (centres unmarked) [Example 113] is ____.
Completion: 236

Prompt: Fill in the blank: the reported IC50 of COc1cccc(C(=O)N2CCc3c(nn(C)c3-c3cc(F)c(F)c(F)c3)[C@@H]2C)c1 [Example 260] is ____.
Completion: 7.25

Prompt: Fill in the blank: the reported IC50 of C[C@H]1c2nn(C)c(-c3cc(F)c(F)c(F)c3)c2CCN1C(=O)c1cnc2cccnc2c1 [Example 245] is ____.
Completion: 122

Prompt: Fill in the blank: the reported IC50 of COc1ccnc(C(=O)N2CCc3c(nn(C)c3-c3cc(F)c(F)c(F)c3)[C@@H]2C)c1C [Example 307] is ____.
Completion: 181

Prompt: Fill in the blank: the reported IC50 of Cn1nc2c(c1-c1ccccc1)CCN(C(=O)c1cccc3cccnc13)C2 [Example 93] is ____.
Completion: 126

Prompt: Fill in the blank: the reported IC50 of Cn1nc2c(c1-c1ccccc1)CCN(C(=O)c1cnn(C)c1C1CC1)C2 [Example 22] is ____.
Completion: 683

Prompt: Fill in the blank: the reported IC50 of COCc1cncc(C(=O)N2CCc3c(nn(C)c3-c3cccc(Cl)c3)[C@@H]2C)c1 [Example 120] is ____.
Completion: 174

Prompt: Fill in the blank: the reported IC50 of COc1ccc(C(=O)N2CCc3c(nn(C)c3-c3cc(F)c(F)c(F)c3)[C@@H]2C)cc1 [Example 261] is ____.
Completion: 29.4

====

Target: human MGL from HeLa cells (Homo sapiens)
Construct: combining endogenously expressed MGL from HeLa cells with test compounds; endogenous in cells; host or cells: HeLa cells / cell homogenates
Sequence (Q99685 1-303): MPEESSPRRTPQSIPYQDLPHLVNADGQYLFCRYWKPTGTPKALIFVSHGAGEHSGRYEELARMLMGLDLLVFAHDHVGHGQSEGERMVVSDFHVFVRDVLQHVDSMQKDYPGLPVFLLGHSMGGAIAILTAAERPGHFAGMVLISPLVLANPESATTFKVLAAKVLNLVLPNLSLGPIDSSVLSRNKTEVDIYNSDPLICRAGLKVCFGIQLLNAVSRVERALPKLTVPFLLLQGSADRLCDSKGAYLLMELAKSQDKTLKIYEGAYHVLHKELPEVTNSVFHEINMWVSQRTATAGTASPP
Assay: In vitro MGL activity assay: [glycerol-1,3-3H]-oleyl glycerol cleavage by MGL from HeLa cells
Assay type: biochemical
Details: 300 nM [Glycerol-1,3-3H]-oleyl glycerol, one hour
measuredEndpoint: IC50 (nM)
Lab book: enter the figure in nM, no units written.

C[C@H]1c2nn(C)c(-c3cc(F)c(F)c(F)c3)c2CCN1C(=O)c1ccn2ncc(F)c2c1 ... 38.8
C[C@H]1c2nn(C)c(-c3cc(F)c(F)c(F)c3)c2CCN1C(=O)c1cnn2cc(F)ccc12 ... 44
C[C@H]1c2nn(C)c(-c3cc(F)c(F)c(F)c3)c2CCN1C(=O)c1nccc2cnn(C)c12 ... 104

We next turn to a different molecule, shown below.
Prompt: Fill in the blank: the reported IC50 of `Cc1onc(C(=O)N2CCc3c(nn(C)c3-c3cc(F)c(F)c(F)c3)[C@@H]2C)c1C` is ____.
Completion: 30.5

====

Below, each of the compounds is paired with its reported pIC50 value.
biological target: human MGL from HeLa cells (Homo sapiens); construct: combining endogenously expressed MGL from HeLa cells with test compounds; endogenous in cells; host or cells: HeLa cells / cell homogenates; assay: In vitro MGL activity assay: [glycerol-1,3-3H]-oleyl glycerol cleavage by MGL from HeLa cells; assay type: biochemical; details: 300 nM [Glycerol-1,3-3H]-oleyl glycerol, one hour incubation
// returns pIC50 (minus log10 of molar concentration), number only

C[C@@H]1c2nn(C)c(-c3cc(F)cc(F)c3)c2CCN1C(=O)c1cnc2ccoc2c1 ... 5.18
COCc1cncc(C(=O)N2CCc3c(nn(C)c3-c3cc(F)c(F)c(F)c3)[C@@H]2C)c1 ... 6.24

We next turn to a different compound, shown below.
Prompt: Fill in the blank: the reported pIC50 of `C[C@H]1c2nn(C)c(-c3cc(F)c(F)c(F)c3)c2CCN1C(=O)c1nccc2occc12` is ____.
Completion: 7.63

====

Below, each of the molecules is paired with its reported log10 IC50 value.
target: human MGL from HeLa cells (Homo sapiens, UniProt Q99685); construct: combining endogenously expressed MGL from HeLa cells with test compounds; endogenous in cells; host or cells: HeLa cells / cell homogenates; assay: In vitro MGL activity assay: [glycerol-1,3-3H]-oleyl glycerol cleavage by MGL from HeLa cells; type: biochemical; details: 300 nM [Glycerol-1,3-3H]-oleyl glycerol, one hour
Kindly note that the scale is log10 and the underlying IC50 is in µM.

COc1nccc(C(=O)N2CCc3c(nn(C)c3-c3ccc(F)c(OC(F)F)c3)[C@@H]2C)c1C [Example 595] ... -0.97
C[C@H]1c2nn(C)c(-c3cccc4c3OCO4)c2CCN1C(=O)c1ccc2ncccc2c1 [Example 541] ... -2.66
COc1cccn2ncc(C(=O)N3CCc4c(nn(C)c4-c4cc(F)c(F)c(F)c4)[C@@H]3C)c12 [Example 390] ... -1.90

Prompt: Fill in the blank: the reported log10 IC50 of C[C@H]1c2nn(C)c(-c3cc(F)c(F)c(F)c3)c2CCN1C(=O)c1cnn2c1CCCC2 [Example 552] is ____.
Completion: -1.39

Prompt: Fill in the blank: the reported log10 IC50 of C[C@H]1c2nn(C)c(-c3cc(F)c(F)c(F)c3)c2CCN1C(=O)c1cnn(C)c1C1(C)CC1 [Example 334] is ____.
Completion: 0.45

Prompt: Fill in the blank: the reported log10 IC50 of C[C@H]1c2nn(C)c(-c3cc(F)c(F)c(F)c3)c2CCN1C(=O)c1cnn(C2CC2)c1C(F)(F)F [Example 346] is ____.
Completion: -1.65

Prompt: Fill in the blank: the reported log10 IC50 of C[C@H]1c2nn(C)c(-c3cc(F)c(F)c(F)c3)c2CCN1C(=O)c1ccc2nccc(Br)c2c1 [Example 547] is ____.
Completion: -2.25

Prompt: Fill in the blank: the reported log10 IC50 of C[C@H]1c2nn(C)c(-c3cccc(F)c3F)c2CCN1C(=O)c1ccc2ncccc2c1 [Example 503] is ____.
Completion: -1.66

Prompt: Fill in the blank: the reported log10 IC50 of Cc1cnn2c(C(=O)N3CCc4c(nn(C)c4-c4cc(F)c(F)c(F)c4)[C@@H]3C)c(C)nc2c1 [Example 457] is ____.
Completion: -1.40

Prompt: Fill in the blank: the reported log10 IC50 of Cc1cc2c(C(=O)N3CCc4c(nn(C)c4-c4cc(F)c(F)c(F)c4)[C@@H]3C)ncnc2n1C [Example 469] is ____.
Completion: -1.44

Prompt: Fill in the blank: the reported log10 IC50 of C[C@H]1c2nn(C)c(-c3cc(F)c(F)c(F)c3)c2CCN1C(=O)c1cc2[nH]ccc2cc1F [Example 353] is ____.
Completion: -1.31

Prompt: Fill in the blank: the reported log10 IC50 of Cc1c(C(=O)N2CCc3c(nn(C)c3-c3cc(F)c(F)c(F)c3)[C@@H]2C)nn2c1OCCC2 [Example 555] is ____.
Completion: -0.74

Prompt: Fill in the blank: the reported log10 IC50 of Cc1c(C(=O)N2CCc3c(nn(C)c3-c3cc(F)c(F)c(F)c3)[C@@H]2C)cnn1C [Example 345] is ____.
Completion: -1.28

====

Below, each of the molecules is paired with its reported IC50 value.
Target: human MGL from HeLa cells (Homo sapiens)
Construct: combining endogenously expressed MGL from HeLa cells with test compounds; endogenous in cells; host or cells: HeLa cells / cell homogenates
Sequence (Q99685 1-303): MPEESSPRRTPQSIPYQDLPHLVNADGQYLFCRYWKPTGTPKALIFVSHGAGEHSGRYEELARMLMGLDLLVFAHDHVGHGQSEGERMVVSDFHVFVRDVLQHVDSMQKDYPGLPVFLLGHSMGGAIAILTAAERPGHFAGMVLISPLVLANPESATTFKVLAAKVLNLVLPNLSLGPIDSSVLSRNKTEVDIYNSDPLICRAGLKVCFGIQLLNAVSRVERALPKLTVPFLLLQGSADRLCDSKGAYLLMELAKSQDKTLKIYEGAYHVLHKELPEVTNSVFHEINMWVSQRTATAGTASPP
Assay: In vitro MGL activity assay: [glycerol-1,3-3H]-oleyl glycerol cleavage by MGL from HeLa cells
Type: biochemical
Settings: 300 nM [Glycerol-1,3-3H]-oleyl glycerol, one hour incubation

Below: 3 molecules and their reported IC50.
C[C@H]1c2nn(C)c(-c3cc(F)c(F)c(F)c3)c2CCN1C(=O)c1nccc2ccccc12 ... 1.89 nM
C[C@H]1c2nn(C)c(-c3cc(F)cc(F)c3)c2CCN1C(=O)c1cccc(OCCF)c1 ... 9.8 nM
COc1cccc(C(=O)N2CCc3c(nn(C)c3-c3ccccc3)C2)c1Cl ... 16.8 nM

Prompt: Fill in the blank: the reported IC50 of `C[C@H]1c2nn(C)c(-c3cc(F)c(F)c(F)c3)c2CCN1C(=O)c1cc(F)cc(-n2nccn2)c1` is ____.
Completion: 15.6 nM

Prompt: Fill in the blank: the reported IC50 of `COc1ccnc(C(=O)N2CCc3c(nn(C)c3-c3cc(F)c(F)c(F)c3)[C@@H]2C)c1Cl` is ____.
Completion: 30.1 nM

Prompt: Fill in the blank: the reported IC50 of `C[C@H]1c2nn(C)c(-c3cc(F)c(F)c(F)c3)c2CCN1C(=O)c1cccc2cccnc12` is ____.
Completion: 5.79 nM

Prompt: Fill in the blank: the reported IC50 of `C[C@H]1c2nn(C)c(-c3cc(F)cc(Cl)c3)c2CCN1C(=O)c1ccc2ncccc2c1` is ____.
Completion: 4.16 nM

Prompt: Fill in the blank: the reported IC50 of `Cn1nc2c(c1-c1ccccc1)CCN(C(=O)c1onc3ccccc13)C2` is ____.
Completion: 226 nM
